From: patent US5747535A

# method: Test 2: Pharmacokinetic test in rats
# Format: in vivo, rat
# test_context: rat, blood, iv, 10 mg/kg, Rat-3, i.v. 10 mg/kg, 10 min; read-out: Blood concentration
measured_parameter: concentration at 10 min (ng/mL)
Give the value in ng/mL but do not write ng/mL after it.

Record summary for CN(C(=O)[C@H](Cc1ccc(C(=N)NN)cc1)NS(=O)(=O)c1ccc2ccccc2c1)C1CCCC1 : reported concentration at 10 min = 1930

* * *

# method: Test 2: Pharmacokinetic test in rats
# Assay type: in vivo, rat
# test_context: rat, blood, iv, 10 mg/kg, Rat-3, i.v. 10 mg/kg, 3 min; read-out: Blood concentration
measured_parameter: concentration at 0.05 h (ng/mL)
Give the value in ng/mL but do not write ng/mL after it.

Record summary for CN(C(=O)[C@H](Cc1ccc(C(=N)NN)cc1)NS(=O)(=O)c1ccc2ccccc2c1)C1CCCC1 [Example 1] : reported concentration at 0.05 h = 7880

* * *

# method: Test 2: Pharmacokinetic test in rats
# Assay type: in vivo, rat
# test_context: rat, blood, po, 15 mg/kg, Rat-3, oral 15 mg/kg, 90 min; read-out: Blood concentration
measured_parameter: concentration at 1.5 h (ng/mL)
Give the value in ng/mL but do not write ng/mL after it.

Record summary for CN(C(=O)[C@H](Cc1ccc(C(=N)NN)cc1)NS(=O)(=O)c1ccc2ccccc2c1)C1CCCC1 [Example 1] : reported concentration at 1.5 h = 119

* * *

# method: Test 2: Pharmacokinetic test in rats
# Format: in vivo, rat
# test_context: rat, blood, po, 15 mg/kg, rats, oral 15 mg/kg, 30 min; read-out: Blood concentration, Average(+error)
measured_parameter: concentration at 0.5 h (ng/mL)
Give the value in ng/mL but do not write ng/mL after it.

Record summary for CN(C(=O)[C@H](Cc1ccc(C(=N)NN)cc1)NS(=O)(=O)c1ccc2ccccc2c1)C1CCCC1 : reported concentration at 0.5 h = 143

* * *

# method: Test 2: Pharmacokinetic test in rats
# Format: in vivo, rat
# test_context: rat, blood, iv, 10 mg/kg, rats, i.v. 10 mg/kg, 5 min; read-out: Blood concentration, Average(+error)
measured_parameter: concentration at 5 min (ng/mL)
Give the value in ng/mL but do not write ng/mL after it.

Record summary for CN(C(=O)[C@H](Cc1ccc(C(=N)NN)cc1)NS(=O)(=O)c1ccc2ccccc2c1)C1CCCC1 : reported concentration at 5 min = 3760

* * *

# method: Test 2: Pharmacokinetic test in dogs
# Type: in vivo, dog
# test_context: dog, blood, po, 10 mg/kg, Dog-1, oral 10 mg/kg, 45 min; read-out: Blood concentration
measured_parameter: concentration at 0.75 h
Could you give the number and then its unit, please?

Record summary for CN(C(=O)[C@H](Cc1ccc(C(=N)NN)cc1)NS(=O)(=O)c1ccc2ccccc2c1)C1CCCC1 : reported concentration at 0.75 h = 1890 ng/mL

* * *

# method: Test 2: Pharmacokinetic test in rats
# Type: in vivo, rat
# test_context: rat, blood, iv, 10 mg/kg, Rat-1, i.v. 10 mg/kg, 10 min; read-out: Blood concentration
measured_parameter: concentration at 10 min (ng/mL)
Give the value in ng/mL but do not write ng/mL after it.

Record summary for CN(C(=O)[C@H](Cc1ccc(C(=N)NN)cc1)NS(=O)(=O)c1ccc2ccccc2c1)C1CCCC1 : reported concentration at 10 min = 1910

* * *

# method: Test 2: Pharmacokinetic test in dogs
# Assay type: in vivo, dog
# test_context: dog, blood, po, 10 mg/kg, Dog-1, oral 10 mg/kg, 240 min; read-out: Blood concentration
measured_parameter: concentration at 4 h (ng/mL)
Give the value in ng/mL but do not write ng/mL after it.

Record summary for CN(C(=O)[C@H](Cc1ccc(C(=N)NN)cc1)NS(=O)(=O)c1ccc2ccccc2c1)C1CCCC1 [Example 1] : reported concentration at 4 h = 812

* * *

# method: Test 2: Pharmacokinetic test in rats
# Assay type: in vivo, rat
# test_context: rat, blood, iv, 10 mg/kg, Rat-2, i.v. 10 mg/kg, 5 min; read-out: Blood concentration
measured_parameter: concentration at 5 min (µg/mL)
Give the value in µg/mL but do not write µg/mL after it.

Record summary for CN(C(=O)[C@H](Cc1ccc(C(=N)NN)cc1)NS(=O)(=O)c1ccc2ccccc2c1)C1CCCC1 [Example 1] : reported concentration at 5 min = 3.07

* * *

# method: Test 2: Pharmacokinetic test in rats
# Type: in vivo, rat
# test_context: rat, blood, iv, 10 mg/kg, rats, i.v. 10 mg/kg, 20 min; read-out: Blood concentration, Average(+error)
measured_parameter: concentration at 20 min
Could you give the number and then its unit, please?

Record summary for CN(C(=O)[C@H](Cc1ccc(C(=N)NN)cc1)NS(=O)(=O)c1ccc2ccccc2c1)C1CCCC1 [Example 1] : reported concentration at 20 min = 900 ng/mL

* * *

# method: Test 2: Pharmacokinetic test in rats
# Assay type: in vivo, rat
# test_context: rat, blood, iv, 10 mg/kg, rats, i.v. 10 mg/kg, 180 min; read-out: Blood concentration, Average(+error)
measured_parameter: concentration at 3 h (ng/mL)
Give the value in ng/mL but do not write ng/mL after it.

Record summary for CN(C(=O)[C@H](Cc1ccc(C(=N)NN)cc1)NS(=O)(=O)c1ccc2ccccc2c1)C1CCCC1 : reported concentration at 3 h = 79

* * *

# method: Test 2: Pharmacokinetic test in rats
# Format: in vivo, rat
# test_context: rat, blood, po, 15 mg/kg, Rat-2, oral 15 mg/kg, 10 min; read-out: Blood concentration
measured_parameter: concentration at 10 min (ng/mL)
Give the value in ng/mL but do not write ng/mL after it.

Record summary for CN(C(=O)[C@H](Cc1ccc(C(=N)NN)cc1)NS(=O)(=O)c1ccc2ccccc2c1)C1CCCC1 [Example 1] : reported concentration at 10 min = 686

* * *

# method: Test 2: Pharmacokinetic test in dogs
# Assay type: in vivo, dog
# test_context: dog, blood, iv, 10 mg/kg, Dog-2, i.v. 10 mg/kg, 45 min; read-out: Blood concentration
measured_parameter: concentration at 0.75 h (ng/mL)
Give the value in ng/mL but do not write ng/mL after it.

Record summary for CN(C(=O)[C@H](Cc1ccc(C(=N)NN)cc1)NS(=O)(=O)c1ccc2ccccc2c1)C1CCCC1 : reported concentration at 0.75 h = 859

* * *

# method: Test 2: Pharmacokinetic test in dogs
# Type: in vivo, dog
# test_context: dog, blood, po, 10 mg/kg, dogs, oral 10 mg/kg, 90 min; read-out: Blood concentration, Average(+error)
measured_parameter: concentration at 1.5 h

Record summary for CN(C(=O)[C@H](Cc1ccc(C(=N)NN)cc1)NS(=O)(=O)c1ccc2ccccc2c1)C1CCCC1 [Example 1] : reported concentration at 1.5 h = 1100 ng/mL

* * *

# method: Test 2: Pharmacokinetic test in rats
# Type: in vivo, rat
# test_context: rat, blood, iv, 10 mg/kg, Rat-3, i.v. 10 mg/kg, 120 min; read-out: Blood concentration
measured_parameter: concentration at 2 h (ng/mL)
Give the value in ng/mL but do not write ng/mL after it.

Record summary for CN(C(=O)[C@H](Cc1ccc(C(=N)NN)cc1)NS(=O)(=O)c1ccc2ccccc2c1)C1CCCC1 [Example 1] : reported concentration at 2 h = 119

* * *

# method: Test 2: Pharmacokinetic test in rats
# Format: in vivo, rat
# test_context: rat, blood, po, 15 mg/kg, Rat-1, oral 15 mg/kg, 90 min; read-out: Blood concentration
measured_parameter: concentration at 1.5 h (ng/mL)
Give the value in ng/mL but do not write ng/mL after it.

Record summary for CN(C(=O)[C@H](Cc1ccc(C(=N)NN)cc1)NS(=O)(=O)c1ccc2ccccc2c1)C1CCCC1 : reported concentration at 1.5 h = 66

* * *

# method: Test 2: Pharmacokinetic test in dogs
# Assay type: in vivo, dog
# test_context: dog, blood, iv, 10 mg/kg, Dog-2, i.v. 10 mg/kg, 10 min; read-out: Blood concentration
measured_parameter: concentration at 10 min (ng/mL)
Give the value in ng/mL but do not write ng/mL after it.

Record summary for CN(C(=O)[C@H](Cc1ccc(C(=N)NN)cc1)NS(=O)(=O)c1ccc2ccccc2c1)C1CCCC1 : reported concentration at 10 min = 3280

* * *

# method: Test 2: Pharmacokinetic test in dogs
# Format: in vivo, dog
# test_context: dog, blood, po, 10 mg/kg, Dog-2, oral 10 mg/kg, 300 min; read-out: Blood concentration
measured_parameter: concentration at 5 h (ng/mL)
Give the value in ng/mL but do not write ng/mL after it.

Record summary for CN(C(=O)[C@H](Cc1ccc(C(=N)NN)cc1)NS(=O)(=O)c1ccc2ccccc2c1)C1CCCC1 [Example 1] : reported concentration at 5 h = 222
